# SUBJECT_OF_TEST: Human TRPV3 (Homo sapiens, UniProt Q8NET8)
# Construct: expressed in transfected cells; host or cells: CHO cells (G-418 selected)
# ASSAY_SUMMARY: 45Calcium uptake assay: inhibition of 2-APB induced cellular uptake of radioactive calcium
# Assay type: cell-based
# CONDITIONS_USED: 10.0 μM compound; human TRPV3 expressing CHO cells; 2-APB 500 μM; read-out: Percentage inhibition at 10.0 μM
The compounds listed here are annotated with their inhibition at 10 µM.

# COMPOUND, SUBJECT_OF_TEST, inhibition at 10 µM
rows = [
    ("COc1ccc2ccccc2c1CCC(=O)NC1CCSc2ccc(Cl)cc21 (centres unmarked) [Example 90]", "Human TRPV3 (Homo sapiens, UniProt Q8NET8)", "91.4%"),
    ("COc1cccc(CCCC(=O)NC2CC3(CCC3)Oc3c(Cl)cc(Cl)cc32)c1OC1CCCC1 (centres unmarked) [Example 98]", "Human TRPV3 (Homo sapiens, UniProt Q8NET8)", "69.5%"),
    ("O=C(Cc1noc2ccccc12)N[C@H]1CC2(CCC2)Oc2ccc(Cl)cc21 [Example 27]", "Human TRPV3 (Homo sapiens, UniProt Q8NET8)", "75.9%"),
    ("COc1cccc(CCCC(=O)N[C@H]2CC3(CCC3)Oc3c(Cl)cccc32)c1OC1CCCC1 [Example 96]", "Human TRPV3 (Homo sapiens, UniProt Q8NET8)", "80.9%"),
    ("COc1cccc(CCC(=O)NC2CC3(CCC3)Oc3cccc(OC)c32)c1OC1CCCC1 (centres unmarked) [Example 52]", "Human TRPV3 (Homo sapiens, UniProt Q8NET8)", "92.5%"),
    ("COc1cccc(CCC(=O)NC2CC3(CCC3)Oc3ccc(Cl)cc32)c1OC(C)C (centres unmarked) [Example 39]", "Human TRPV3 (Homo sapiens, UniProt Q8NET8)", "97.5%"),
    ("COc1cccc(CCC(=O)NC2CC3(CCC3)Oc3cc(Cl)ccc32)c1OC1CCCC1 (centres unmarked) [Example 45]", "Human TRPV3 (Homo sapiens, UniProt Q8NET8)", "94.8%"),
    ("O=C(CCc1cccc2c1OCO2)NC1CC2(CCC2)Oc2c(Cl)cccc21 (centres unmarked) [Example 83]", "Human TRPV3 (Homo sapiens, UniProt Q8NET8)", "83.2%"),
]

* * *

# SUBJECT_OF_TEST: Human TRPV3 (Homo sapiens)
# Construct: expressed in transfected cells; host or cells: CHO cells (G-418 selected)
# ASSAY_SUMMARY: 45Calcium uptake assay: inhibition of 2-APB induced cellular uptake of radioactive calcium
# Assay type: cell-based
# CONDITIONS_USED: 10.0 μM compound; human TRPV3 expressing CHO cells; 2-APB 500 μM; read-out: Percentage inhibition at 10.0 μM
Items are presented alongside their recorded inhibition at 10 µM.
READOUT_LABEL: inhibition at 10 µM (%)

# COMPOUND, READOUT_LABEL, MEAS_VALUE
data = [
    ("O=C(CCc1cccc2ccccc12)NC1CC2(CCC2)Oc2ccc(Cl)cc21 (stereo not shown) [Example 66]", "inhibition at 10 µM", 92.3),
    ("O=C(CCc1cccc(OC2CCCC2)c1)N[C@@H]1CC2(CCC2)Oc2ccc(Cl)cc21 [Example 29]", "inhibition at 10 µM", 88.4),
    ("COc1cccc(CC(=O)N[C@H]2CC3(CCC3)Oc3c(Cl)cccc32)c1OC1CCCC1 [Example 6]", "inhibition at 10 µM", 89),
    ("O=C(CCc1cccc2c1oc1ccccc12)NC1CC2(CCC2)Oc2ccc(Cl)cc21 (stereo not shown) [Example 85]", "inhibition at 10 µM", 90.4),
]

* * *

# SUBJECT_OF_TEST: Human TRPV3 (Homo sapiens)
# Construct: expressed in transfected cells; host or cells: CHO cells (G-418 selected)
# Sequence (Q8NET8 1-790): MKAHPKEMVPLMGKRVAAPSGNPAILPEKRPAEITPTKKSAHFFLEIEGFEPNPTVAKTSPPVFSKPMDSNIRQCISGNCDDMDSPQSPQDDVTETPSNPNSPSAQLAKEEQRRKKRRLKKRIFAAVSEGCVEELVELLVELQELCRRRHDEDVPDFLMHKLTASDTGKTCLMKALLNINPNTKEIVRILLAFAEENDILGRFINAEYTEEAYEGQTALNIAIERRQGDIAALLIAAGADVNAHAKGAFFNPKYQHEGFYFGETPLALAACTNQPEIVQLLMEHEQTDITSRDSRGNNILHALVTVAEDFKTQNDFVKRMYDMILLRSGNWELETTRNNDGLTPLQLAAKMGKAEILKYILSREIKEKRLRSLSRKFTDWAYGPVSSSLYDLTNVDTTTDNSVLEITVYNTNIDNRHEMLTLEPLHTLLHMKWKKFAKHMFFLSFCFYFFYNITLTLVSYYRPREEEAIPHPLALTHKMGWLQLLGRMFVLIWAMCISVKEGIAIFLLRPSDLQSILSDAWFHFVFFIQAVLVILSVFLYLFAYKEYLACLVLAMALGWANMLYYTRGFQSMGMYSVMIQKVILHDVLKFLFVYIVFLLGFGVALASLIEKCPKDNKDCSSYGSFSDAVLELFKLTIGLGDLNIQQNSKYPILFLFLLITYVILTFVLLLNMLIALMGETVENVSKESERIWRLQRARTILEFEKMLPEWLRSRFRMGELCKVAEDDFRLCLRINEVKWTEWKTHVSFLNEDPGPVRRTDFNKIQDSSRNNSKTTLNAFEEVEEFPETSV
# ASSAY_SUMMARY: 45Calcium uptake assay: inhibition of 2-APB induced cellular uptake of radioactive calcium
# Assay type: cell-based
# CONDITIONS_USED: 1.0 μM compound; human TRPV3 expressing CHO cells; 2-APB 500 μM; read-out: Percentage inhibition at 1.0 μM
Assign class by inhibition at 1 µM: not lower than 30% means label 1; lower than 30% means label 0.

# COMPOUND, CLASS_LABEL
records = [
    ("O=C(Cc1cccc2ccccc12)NC1CC2(CCC2)Oc2cccc(O)c21 (centres unmarked)", "label 0"),
    ("COc1cccc(CCCC(=O)N[C@H]2CC3(CCC3)Oc3c(Cl)cccc32)c1OC1CCCC1", "label 1"),
    ("O=C(CCc1cccc2ccccc12)NC1CC2(CCC2)Oc2ccc(Cl)cc21 (centres unmarked)", "label 1"),
    ("O=C(CCc1cccc2c1OCCO2)NC1CC2(CCC2)Oc2ccc(Cl)cc21 (centres unmarked)", "label 0"),
    ("COc1ccc2cc([C@H](C)C(=O)N[C@H]3CC4(CCC4)Oc4ccc(Cl)cc43)ccc2c1", "label 0"),
    ("O=C(Cc1ccccn1)NC1CC2(CCC2)Oc2ccc(Cl)cc21 (centres unmarked)", "label 0"),
    ("COc1cccc(CCCC(=O)NC2CCSc3ccc(Cl)cc32)c1OC1CCCC1 (centres unmarked)", "label 1"),
]

* * *

# SUBJECT_OF_TEST: Human TRPV3 (Homo sapiens, UniProt Q8NET8)
# Construct: expressed in transfected cells; host or cells: CHO cells (G-418 selected)
# ASSAY_SUMMARY: 45Calcium uptake assay: inhibition of 2-APB induced cellular uptake of radioactive calcium
# Format: cell-based
# CONDITIONS_USED: 10.0 μM compound; human TRPV3 expressing CHO cells; 2-APB 500 μM; read-out: Percentage inhibition at 10.0 μM
# Method: The illustrative examples of the present invention are screened for TRPV3 activity according to a modified procedure described in Toth, A. et al. Life Sciences (2003), 73, 487-498. […] The inhibition of TRPV3 receptor activation was followed as inhibition of 2-APB induced cellular uptake of radioactive calcium. […] Radioactivity in the lysate was measured in Packardt Top count after addition of liquid scintillant. […]
READOUT_LABEL: inhibition at 10 µM (%)

# COMPOUND, MEAS_VALUE
data = [
    ("COc1ccc(CCC(=O)N[C@@H]2CC3(CCC3)Oc3ccc(Cl)cc32)c2ccccc12", 86.8),
    ("COc1ccc2cc(CCC(=O)N[C@H]3CC4(CCC4)Oc4ccc(Cl)cc43)ccc2c1", 90.4),
    ("COc1cccc(CCC(=O)NC2CC3(CCC3)Oc3ccccc32)c1OC1CCCC1 (centres unmarked)", 95.7),
    ("COc1ccc2cc([C@H](C)C(=O)N[C@H]3CC4(CCC4)Oc4ccc(Cl)cc43)ccc2c1", 50.9),
    ("O=C(CCc1cccc(OC2CCCC2)c1)N[C@H]1CC2(CCC2)Oc2ccc(Cl)cc21", 80.6),
    ("CCOc1cccc(CCC(=O)NC2CC3(CCC3)Oc3ccc(Cl)cc32)c1OC1CCCC1 (centres unmarked)", 88.8),
    ("O=C(CCc1ccccc1OC1CCCC1)NC1CC2(CCC2)Oc2ccc(Cl)cc21 (centres unmarked)", 84.3),
    ("O=C(Cc1noc2ccccc12)N[C@@H]1CC2(CCC2)Oc2ccc(Cl)cc21", 46.1),
]
